Target: T1, S100A1 (Homo sapiens, UniProt P23297)
T1 chain: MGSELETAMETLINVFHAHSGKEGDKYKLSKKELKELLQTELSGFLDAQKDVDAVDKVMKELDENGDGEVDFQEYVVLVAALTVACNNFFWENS
Assay: fluorescence anisotropy
No end group written: not given here.
property_label: Kd (µM)

P. FGECYRSSEVRAARLLLRRCPL (cysteine pairing not given here; also: Ca2+) [TRPM4 (M4nt_WT)]
Q. PFIVISHLRLLLRQLCRRPRS (also: Ca2+) [TRPM4 (M4ct_WT)]
Between P and Q , which one shows the smaller Kd number? Give the chosen item's label as your response. P
(P: 2.7 µM, Q: 12 µM)
